// data source = patent US20120329787A1

Tested on: Puccinia recondita f. sp. tritici
ASSAY NAME: Test H: wheat leaf rust, spray on wheat seedlings the day before inoculation
Format: in vivo
EXPERIMENTAL CONTEXT: 200 ppm test suspension, sprayed before inoculation
Recorded Test H rating (100 = 100% disease control, 0 = no disease control) for the following molecules
REPORTED PROPERTY: Test H rating (100 = 100% disease control, 0 = no disease control) (%)

molecule="Cc1noc(=O)c(-c2c(F)cccc2F)c1-c1ccc(Br)cc1 [Compound 15]" measured_value=91
molecule="COc1cc(OC)cc(-c2c(C)oc(=O)c(C)c2-c2c(F)cc(OC)cc2F)c1 [Compound 43]" measured_value=100
molecule="COc1cc(OC)cc(-c2cc(=O)oc(C)c2-c2ccc(F)cc2Cl)c1 [Compound 56]" measured_value=100
molecule="Cc1noc(=O)c(-c2c(F)ccc(F)c2F)c1-c1ccc(Cl)cc1 [Compound 6]" measured_value=41
molecule="Cc1noc(=O)c(-c2c(F)cc(F)cc2F)c1-c1ccc(Br)cc1 [Compound 10]" measured_value=95
molecule="COc1cc(OC)cc(-c2c(-c3ccccc3F)c(C)oc(=O)c2C)c1 [Compound 60]" measured_value=100
molecule="COc1cc(OC)cc(-c2c(-c3ccccc3F)noc(=O)c2-c2ccc(F)cc2F)c1 [Compound 21]" measured_value=0
molecule="COc1cc(OC)cc(-c2c(-c3ccccc3F)noc(=O)c2-c2c(F)cccc2F)c1 [Compound 22]" measured_value=0
molecule="COc1cc(OC)c(Cl)c(-c2c(-c3c(F)cccc3F)c(C)oc(=O)c2C)c1Cl [Compound 53]" measured_value=88
molecule="COc1cccc(-c2c(-c3ccc(F)cc3F)c(C)oc(=O)c2-c2ccccc2)c1 [Compound 29]" measured_value=100
molecule="COc1cc(OC)cc(-c2c(-c3ccc(F)cc3F)c(C)oc(=O)c2-c2ccccc2)c1 [Compound 27]" measured_value=100
molecule="Cc1noc(=O)c(-c2c(F)cc(F)cc2F)c1-c1cccc(F)c1 [Compound 5]" measured_value=0
molecule="COc1cc(OC)c(Cl)c(-c2c(-c3c(F)cc(F)cc3F)c(C)oc(=O)c2C)c1Cl [Compound 59]" measured_value=100
molecule="Cc1noc(=O)c(-c2ccc(F)cc2F)c1-c1ccc(Cl)cc1 [Compound 13]" measured_value=91
molecule="Cc1noc(=O)c(-c2c(F)cccc2Cl)c1-c1ccc(Cl)cc1 [Compound 8]" measured_value=98
molecule="Cc1noc(=O)c(-c2ccc(F)cc2Cl)c1-c1ccc(Br)cc1 [Compound 14]" measured_value=0
molecule="COc1cc(OC)cc(-c2c(-c3ccccc3F)c(C)oc(=O)c2-c2ccccc2)c1 [Compound 26]" measured_value=100
molecule="Cc1noc(=O)c(-c2ccc(Cl)cc2)c1-c1c(F)cccc1F [Compound 2]" measured_value=0
